assay: Permeability of the compound in PBS/EtOH buffer (70:30) by PAMPA-BBB assay; format: ADME; settings: read-out: permeability
Give Papp at 16 h for every item shown.
Kindly answer with a numeric value in ×10⁻⁶ cm/s, unit omitted.

Entry `CCN(CCCCCCn1nc(-c2cc(N(C)C)ccc2O)ccc1=O)Cc1ccccc1N(C)C` , Papp at 16 h reported as 13.5

Entry `CCN(CCCCCCn1nc(-c2ccccc2O)ccc1=O)Cc1cccc(F)c1` , Papp at 16 h reported as 13.2

====

target: Amyloid-beta precursor protein (Homo sapiens) (UniProt P05067); assay: Inhibition of self-induced amyloid beta (1 to 42) (unknown origin) aggregation by Thioflavin T based fluorometric assay relative to control; set-up: concentration or dose not given beside the values; settings: concentration not given here
Sequence (P05067 whole entry): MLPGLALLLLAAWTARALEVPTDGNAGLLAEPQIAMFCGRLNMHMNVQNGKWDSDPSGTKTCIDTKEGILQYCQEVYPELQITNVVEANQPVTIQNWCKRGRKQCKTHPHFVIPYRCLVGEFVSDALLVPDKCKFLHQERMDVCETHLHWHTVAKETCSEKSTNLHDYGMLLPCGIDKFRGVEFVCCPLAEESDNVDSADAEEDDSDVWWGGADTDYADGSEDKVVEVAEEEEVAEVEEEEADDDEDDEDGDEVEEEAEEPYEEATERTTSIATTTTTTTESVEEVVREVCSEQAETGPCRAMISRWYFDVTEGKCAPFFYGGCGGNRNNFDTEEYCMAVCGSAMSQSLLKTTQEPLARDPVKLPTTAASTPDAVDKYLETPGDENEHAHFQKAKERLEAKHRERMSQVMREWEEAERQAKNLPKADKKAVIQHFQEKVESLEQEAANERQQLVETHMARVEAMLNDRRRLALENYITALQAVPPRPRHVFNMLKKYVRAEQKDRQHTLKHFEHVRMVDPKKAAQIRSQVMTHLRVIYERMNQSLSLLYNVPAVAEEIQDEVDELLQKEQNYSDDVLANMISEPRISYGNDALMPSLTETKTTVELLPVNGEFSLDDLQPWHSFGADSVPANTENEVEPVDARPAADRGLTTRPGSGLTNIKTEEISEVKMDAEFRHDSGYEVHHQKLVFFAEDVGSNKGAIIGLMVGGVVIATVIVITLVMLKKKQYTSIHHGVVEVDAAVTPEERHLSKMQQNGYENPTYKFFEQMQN
MEASURED ENDPOINT: inhibition (%)
Kindly answer with a numeric value in %, unit omitted.

Entry `CCN(CCCCCCn1nc(-c2cc(NC(C)=O)ccc2O)ccc1=O)Cc1ccccc1OC` , inhibition reported as 42.6

Entry `CCN(CCCCCCn1nc(-c2ccc(N(C)C)cc2O)ccc1=O)Cc1ccccc1N(C)C` , inhibition reported as 71.3

Entry `CCN(CCCCCCn1nc(-c2cc(F)ccc2O)ccc1=O)Cc1ccccc1OC` , inhibition reported as 30.2

Entry `CCN(CCCCCCn1nc(-c2ccccc2O)ccc1=O)Cc1cccc(F)c1` , inhibition reported as 34.5

Entry `CCN(CCCn1nc(-c2ccccc2O)ccc1=O)Cc1ccccc1N(C)C` , inhibition reported as 34.7

Entry `CCN(CCCCCCn1nc(-c2ccccc2O)ccc1=O)Cc1ccccc1F` , inhibition reported as 27.4

Entry `CCN(CCCCCCCCn1nc(-c2cc(N(C)C)ccc2O)ccc1=O)Cc1ccccc1N(C)C` , inhibition reported as 97.4

Entry `CCN(CCCCCCCCn1nc(-c2cc(NC(C)=O)ccc2O)ccc1=O)Cc1ccccc1N(C)C` , inhibition reported as 95.2

Entry `CCN(CCCCCCOc1ccc(-c2cc(N(C)C)ccc2O)nn1)Cc1ccccc1N(C)C` , inhibition reported as 95.2

Entry `CCN(CCCCCCn1nc(-c2ccccc2O)ccc1=O)Cc1ccccc1N(C)C` , inhibition reported as 40.2

====

target: Amyloid-beta precursor protein (Homo sapiens); experiment: Inhibition of self-induced amyloid beta (1 to 42) (unknown origin) aggregation by Thioflavin T based fluorometric assay relative to control; set-up: concentration or dose not given beside the values; settings: concentration not given here
MEASURED ENDPOINT: inhibition (%)
Kindly answer with a numeric value in %, unit omitted.

Entry `CCN(CCCCCCn1nc(-c2cc(F)ccc2O)ccc1=O)Cc1ccccc1N(C)C` , inhibition reported as 30.3

Entry `CCN(CCCCCCn1nc(-c2cc(OC)ccc2O)ccc1=O)Cc1ccccc1N(C)C` , inhibition reported as 56.4

Entry `CCN(CCCCCCn1nc(-c2ccccc2O)ccc1=O)Cc1ccccc1` , inhibition reported as 15.4

Entry `CCN(CCCCCCn1nc(-c2cc(F)ccc2O)ccc1=O)Cc1cccc(F)c1` , inhibition reported as 33.8

Entry `CCN(CCCCCCn1nc(-c2ccccc2O)ccc1=O)Cc1ccc(N(C)C)cc1` , inhibition reported as 51.9

Entry `CCN(CCCCCCn1nc(-c2ccc(OC)cc2O)ccc1=O)Cc1ccccc1N(C)C` , inhibition reported as 34.3

Entry `CCN(CC)CCCCCCn1nc(-c2ccccc2O)ccc1=O` , inhibition reported as 33.8

Entry `CCN(CCCCCCn1nc(-c2cc(N(C)C)ccc2O)ccc1=O)Cc1ccccc1OC` , inhibition reported as 93.9

Entry `CCN(CC)CCCn1nc(-c2ccccc2O)ccc1=O` , inhibition reported as 33.7

Entry `COc1ccccc1CN(C)CCCCCCn1nc(-c2ccccc2O)ccc1=O` , inhibition reported as 30.9

Entry `CCN(CCCCCCn1nc(-c2cc(N(C)C)ccc2O)ccc1=O)Cc1cccc(F)c1` , inhibition reported as 97

Entry `CCN(CCCCCCn1nc(-c2cccc(N(C)C)c2O)ccc1=O)Cc1ccccc1N(C)C` , inhibition reported as 57.9

Entry `CCN(CCCCCCOc1ccc(-c2ccccc2O)nn1)Cc1cccc(F)c1` , inhibition reported as 26.4

Entry `CCN(CCCCCCn1nc(-c2ccccc2O)ccc1=O)Cc1ccccc1OC` , inhibition reported as 36.1

Entry `CCN(CCCCCCn1nc(-c2cc(N(C)C)ccc2O)ccc1=O)Cc1ccccc1N(C)C` , inhibition reported as 99.1

Entry `CCN(CCCCCCOc1ccc(-c2cc(N(C)C)ccc2O)nn1)Cc1cccc(F)c1` , inhibition reported as 96.3

Entry `CCN(CCCCCCn1nc(-c2cc(NC(C)=O)ccc2O)ccc1=O)Cc1ccccc1N(C)C` , inhibition reported as 44

Entry `CCN(CCCCCCn1nc(-c2cc(NC(C)=O)ccc2O)ccc1=O)Cc1cccc(F)c1` , inhibition reported as 38.8
